System: COLO 205 colon
experiment_description: NCI-60 one-dose screen, 48 h
assay_context: 10 µM unless noted
The panel holds about 83,000 compounds, 20% with a hit somewhere; the sample as a whole holds those more often. The source made the active and inactive calls. Rule for the calls: active = growth percent below 10; inactive = the rest.
I would appreciate it if you answered using one of these outcomes: active, inactive

Use the examples below as a reference point.
>  <compound>
COc1ccc(Nc2nnc(SCc3ccccc3F)s2)cc1

>  <class_assignment>
inactive

$$$$
>  <compound>
O=C1OC(c2nc3ccccc3s2)=C/C1=C\c1ccc(O)cc1

>  <class_assignment>
inactive

$$$$
>  <compound>
O=C(O)CN1C(=O)CCC1=O

>  <class_assignment>
inactive

$$$$
>  <compound>
COc1ccc2nc(NNC(=O)c3cnccn3)c3cccn3c2c1

>  <class_assignment>
active

$$$$
>  <compound>
O=C(CSc1nccc(Nc2ccc(S(=O)(=O)Nc3nccs3)cc2)n1)c1ccc(F)cc1

>  <class_assignment>
inactive

$$$$
>  <compound>
COC(=O)[C@]12CC[C@@H](C)[C@H](C)[C@@H]1C1=CC[C@@H]3[C@@]4(C)C(C=O)=C[C@@](C)(COC(=O)c5ccco5)[C@@H]4C(=O)C[C@@]3(C)[C@]1(C)CC2

>  <class_assignment>
active

$$$$
>  <compound>
COc1ccc(/C=N/C2=C(C#N)C(c3ccc(OC)cc3)c3ccc4ccccc4c3O2)cc1 (centres undefined)

>  <class_assignment>
inactive

$$$$
>  <compound>
COc1ccc(OC)c(-c2c(C#N)c(-c3ccc(Cl)cc3)nc3c2c(-c2ccccc2)nn3-c2ccccc2)c1

>  <class_assignment>
inactive

$$$$

We next turn to a different compound, shown below.
Problem: Given O=C(N/N=C/C=C/c1ccc([N+](=O)[O-])o1)c1cc2ccccc2cc1O , state the outcome it received in this test.
Result: active

###

# Lookup of reported growth keyed by entry
Test system: COLO 205 colon
experiment_description: NCI-60 one-dose screen, 48 h (100 = growth as untreated, 0 = no growth, -100 = all killed)
assay_context: 10 µM unless noted
This is part of a sample that, as a whole, favours compounds with a hit. Of some 83,000 tested, about 20% had one in any assay.
Expressed in %, but write only the number.

>  <compound>
Cc1ccc(NS(=O)(=O)c2ccc3c(c2)C2OCCC2C(c2ccc(C(=O)C(C)C)cc2)N3)cc1C (centres undefined)

>  <growth [%]>
30.8

$$$$
>  <compound>
NCCCNc1nc2ccccc2c2c(=O)c3cccc(Cl)c3sc12

>  <growth [%]>
-50.6

$$$$
>  <compound>
Cc1ccc(NCCN(C)C)c2c(=O)c3ccccc3sc12

>  <growth [%]>
-53.5

$$$$

// below: growth requested for another compound
Problem: Tell me reported growth for O=C(Nc1ccc(Nc2ccncc2)cc1)c1ccc(C(=O)Nc2ccc(Nc3ccncc3)cc2)cc1 , tested with COLO 205 colon.
Result: 27.7

###

System: SK-MEL-2 melanoma
experiment_description: NCI-60 one-dose screen, 48 h
assay_context: 10 µM unless noted
The panel holds about 83,000 compounds, 20% with a hit somewhere; the sample as a whole holds those more often. Active and inactive are the calls of the source. How the source made its calls: active means growth percent below 10; inactive means the rest.
I would appreciate it if you answered using one of these outcomes: yes (1) = active, no (0) = inactive

>  <molecule>
Cc1ccc(/C=C/c2c(C(=O)/C=C/c3ccc(Cl)cc3)c(C)nc3ccccc23)cc1

>  <class_assignment>
yes (1)

$$$$
>  <molecule>
CN(C)CCCn1c(=O)c2ccccc2c2ccccc21

>  <class_assignment>
no (0)

$$$$
>  <molecule>
N#CC1=C(NC=O)Oc2c(ccc3ccccc23)C1c1ccccc1 (stereo unspecified)

>  <class_assignment>
no (0)

$$$$
>  <molecule>
CC(=O)N1C(=S)NC(=O)C1Cn1c(-c2ccccc2)nc2ccccc21 (stereo unspecified)

>  <class_assignment>
no (0)

$$$$
>  <molecule>
Cn1cc(-c2csc(-c3ccccc3)n2)c2cccnc21

>  <class_assignment>
yes (1)

$$$$

We next turn to a different molecule, shown below.
Problem: Given Cc1cc(/C=C\c2ccc3ccccc3[n+]2C)c(O)c2ncccc12 , state the outcome it received in this test.
Result: no (0)

Every entry's value here was drawn from PubChem BioAssay (NCI).
